Values were extracted from PubChem BioAssay AID1845199.

Recorded viability, T/C values for a group of compounds are listed next.
- Test system: 556581-035-R-J1 tumor spheroid viability, % test/control
- assay_text: Anticancer human tumor 556581-035-R-J1 patient-derived ovarian carcinoma cell line growth inhibition
- conditions: second compound 0.0949 µM; first compound 3.16 µM; active compounds read low; spheroids with HUVEC and MSC

Quick one: viability, T/C of COc1ccc([C@@H](O)c2cc(-c3ncnc4cc(N5CCOCC5)ccc34)c(F)cc2Cl)nn1 + CC[C@@]1(O)C(=O)OCc2c1cc1n(c2=O)Cc2cc3c(CN(C)C)c(O)ccc3nc2-1 ?
30.8%

Another compound: [2H]c1nc(C)nc([2H])c1-c1cc(NC[C@@H](C)c2cccc3c(C(=O)NC)ccnc23)ncn1 + CC[C@@]1(O)C(=O)OCc2c1cc1n(c2=O)Cc2cc3c(CN(C)C)c(O)ccc3nc2-1
50.7%

Another compound: COc1cc(C)[nH]c(=O)c1CN1CCc2c(Cl)cc(C(OC)C3COC3)c(Cl)c2C1=O (stereo not drawn) + CC[C@@]1(O)C(=O)OCc2c1cc1n(c2=O)Cc2cc3c(CN(C)C)c(O)ccc3nc2-1
47.9%

----------
- Test system: 556581-035-R-J1 tumor spheroid viability, % test/control
- assay_text: Anticancer human tumor 556581-035-R-J1 cell line growth inhibition;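 further: spheroids exposed to compounds for 7 days before viability read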
- conditions: second compound 3.16 µM; first compound 0.0316 µM; active compounds read low; spheroids with HUVEC and MSC
measured_endpoint: viability, T/C (%)
Write the answer as a number in %, unit excluded.

Examples with their reported viability, T/C follow.
{"compound": "[2H]c1nc(C)nc([2H])c1-c1cc(NC[C@@H](C)c2cccc3c(C(=O)NC)ccnc23)ncn1 + Cn1nnc2c(C(N)=O)ncn2c1=O", "tgt": "556581-035-R-J1 tumor spheroid viability, % test/control", "measured_endpoint": "viability, T/C", "observed": 98.7}
{"compound": "COc1cc(C)[nH]c(=O)c1CN1CCc2c(Cl)cc(C(OC)C3COC3)c(Cl)c2C1=O (stereo unspecified) + Cn1nnc2c(C(N)=O)ncn2c1=O", "tgt": "556581-035-R-J1 tumor spheroid viability, % test/control", "measured_endpoint": "viability, T/C", "observed": 99.3}

Quick one: viability, T/C of CC(C)n1c(=O)n(C)c2cnc3cc(F)c(-c4ccc(OCCCN5CCCCC5)nc4)cc3c21 + Cn1nnc2c(C(N)=O)ncn2c1=O ?
101

Another compound: COc1ccc([C@@H](O)c2cc(-c3ncnc4cc(N5CCOCC5)ccc34)c(F)cc2Cl)nn1 + Cn1nnc2c(C(N)=O)ncn2c1=O
105

Another compound: CC1COCCN1c1cc(-c2ccnn2C)c2ccnc(-c3ccn[nH]3)c2n1 (stereo unspecified) + Cn1nnc2c(C(N)=O)ncn2c1=O
90.6

Another compound: Cc1cc(C)c(CNC(=O)c2cc(-c3ccc(CN4CCOCC4)cc3)cc3c2cnn3C2CCCC2)c(=O)[nH]1 + Cn1nnc2c(C(N)=O)ncn2c1=O
107

----------
Recorded viability, T/C values for a group of molecules are listed next.
- Tested on: 556581-035-R-J1 tumor spheroid viability, % test/control
- assay_text: Anticancer human tumor 556581-035-R-J1 cell line growth inhibition;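 further: spheroids exposed to compounds for 7 days before viability read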
- conditions: second compound 31.6 µM; first compound 0.3 µM; active compounds read low; spheroids with HUVEC and MSC
Write the answer as a number in %, unit excluded.

Examples with their reported viability, T/C follow.
{"molecule": "O=C(c1cc(Cc2n[nH]c(=O)c3ccccc23)ccc1F)N1CCN(C(=O)C2CC2)CC1 + Cn1nnc2c(C(N)=O)ncn2c1=O", "measured_endpoint": "viability, T/C", "unit_text": "%", "observed": 101}
{"molecule": "CNCc1ccc(-c2cc(-c3nc(-c4ccc(S(=O)(=O)C(C)C)cc4)cnc3N)on2)cc1 + Cn1nnc2c(C(N)=O)ncn2c1=O", "measured_endpoint": "viability, T/C", "unit_text": "%", "observed": 98.4}
{"molecule": "Cn1ncnc1[C@H]1c2n[nH]c(=O)c3cc(F)cc(c23)N[C@@H]1c1ccc(F)cc1 + Cn1nnc2c(C(N)=O)ncn2c1=O", "measured_endpoint": "viability, T/C", "unit_text": "%", "observed": 68.3}

# ---- query molecule ----
Quick one: viability, T/C of Cc1sc2c(c1C)C(c1ccc(Cl)cc1)=NC(CC(=O)Nc1ccc(O)cc1)c1nnc(C)n1-2 (centres undefined) + Cn1nnc2c(C(N)=O)ncn2c1=O ?
70.7
